# Assay system: human factor Xa (Homo sapiens)
# Construct: 0.2-0.5 nM human thrombin or human factor Xa; purchased Enzyme Research Laboratories, South Bend, Ind
# Method description: Inhibition of Factor Xa hydrolysis of chromogenic substrate S2222 (Ki)
# Format: biochemical
# Test settings: purified human factor Xa, 0.10 M sodium phosphate buffer, pH 7.5, read-out: Ki values for inhibition of Serine Proteases: Factor Xa
# Protocol: The effectiveness of compounds of the present invention as inhibitors of blood coagulation proteases was determined using purified human proteases and synthetic substrates following procedures similar to those described in Kettner et al. (1990). […] Reactions were allowed to go for 30 minutes and the velocities (rate of absorbance change vs time) were measured in the time frame of 25-30 minutes. […]
pKi: −log10 of the molar value. Structures can show the parent of a compound that is named as a salt.
Listing: pKi of selected molecules

Consider the following illustrative entries.
CN(CC(=O)NC(CCCCN)B1OC2CC3CC(C3(C)C)C2(C)O1)C(=O)c1ccccc1Sc1ccccc1C#N (centres unmarked) [Example 62.4.3, HCl] : > 6.30
CN=C(N)NCCCC(NC(=O)CN(CCc1ccccc1)C(=O)CCc1ccccc1)B1OC2CC3CC(C3(C)C)C2(C)O1 (centres unmarked) [Example 49.2.1, HCl] : > 6.30
CC1(C)C2CC3OB(C(CCCCN)NC(=O)CN(C(=O)CCC(=O)O)C(=O)CCc4ccccc4)OC3(C)C1C2 (centres unmarked) [Example 54.2.3] : > 4.30
COC(=O)CC(C)(C)CC(=O)N(CCc1ccccc1)CC(=O)NC(CCCCN)B1OC2CC3CC(C3(C)C)C2(C)O1 (centres unmarked) [Example 67.1.3, HCl] : > 6.30
CC1(C)C2CC3OB(C(CCCN)NC(=O)CN(CCc4ccccc4)C(=O)CCc4ccccc4)OC3(C)C1C2.Cl (centres unmarked) [Example 49.1.1] : > 4.30

Query :: Provide only the value of recorded pKi for NCCCCC(NC(=O)CN(CCc1ccccc1)C(=O)CCCC(=O)O)B(O)O (centres unmarked) [Example 66.1.1, HCl]
Result :: > 6.30

Query :: Provide only the value of recorded pKi for CN(CC(=O)NC(CCCN)B1OC2CC3CC(C3(C)C)C2(C)O1)C(=O)c1ccccc1Sc1ccccc1C#N (centres unmarked) [Example 62.3.1, HCl]
Result :: > 4.30

Query :: Provide only the value of recorded pKi for CN(CC(=O)NC(CCCCSC(=N)N)B1OC2CC3CC(C3(C)C)C2(C)O1)C(=O)c1ccccc1Sc1ccccc1C#N (centres unmarked) [Example 62.2.2, HBr]
Result :: > 6.30

Query :: Provide only the value of recorded pKi for CC(=O)N(CC(=O)NC(CCCCN)B1OC2CC3CC(C3(C)C)C2(C)O1)Cc1ccccc1Cc1ccccc1 (centres unmarked) [Example 64.1.2, HCl]
Result :: > 4.30

Query :: Provide only the value of recorded pKi for CC(C)(CN(CC(=O)NC(CCCNC(=N)N)B(O)O)C(=O)CCc1ccccc1)c1ccccc1 (centres unmarked) [Example 55.1.1, HCl]
Result :: > 6.30

Query :: Provide only the value of recorded pKi for COC(=O)CCCC(=O)N(CCc1ccccc1)CC(=O)NC(CCCCN)B(O)O (centres unmarked) [Example 68.4.1, HCl]
Result :: > 6.30

Query :: Provide only the value of recorded pKi for CC1(C)C2CC3OB(C(CCCCN)NC(=O)CN(CCc4ccccc4C4CC4)C(=O)CCc4ccccc4)OC3(C)C1C2 (centres unmarked) [Example 54.1.2, HCl]
Result :: > 4.30

Query :: Provide only the value of recorded pKi for CC1(C)C2CC3OB(C(CCCNC(=N)N)NC(=O)CN(CCc4ccccc4C4CC4)C(=O)CCc4ccccc4)OC3(C)C1C2 (centres unmarked) [Example 56.1.2, HCl]
Result :: > 6.30

Query :: Provide only the value of recorded pKi for NCCCCC(NC(=O)CN(CCc1ccccc1)C(=O)CCC(=O)O)B(O)O (centres unmarked) [Example 68.3.1, Succinyl-[N-(Phenethyl)-Gly]-boroLys--OH]
Result :: > 4.30

* * *

pKi: −log10 of the molar value. Structures can show the parent of a compound that is named as a salt.
human factor VIIa (Homo sapiens) pKi data
Sequence (P08709 213-466 limits assumed): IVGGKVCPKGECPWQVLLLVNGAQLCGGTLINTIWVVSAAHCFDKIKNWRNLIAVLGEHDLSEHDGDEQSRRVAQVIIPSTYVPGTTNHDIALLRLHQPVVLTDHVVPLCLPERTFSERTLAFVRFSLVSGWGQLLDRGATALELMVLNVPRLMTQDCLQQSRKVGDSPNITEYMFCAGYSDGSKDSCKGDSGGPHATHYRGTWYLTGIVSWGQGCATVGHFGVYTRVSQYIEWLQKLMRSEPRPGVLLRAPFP
Sequence (P08709 61-212 partner limits assumed): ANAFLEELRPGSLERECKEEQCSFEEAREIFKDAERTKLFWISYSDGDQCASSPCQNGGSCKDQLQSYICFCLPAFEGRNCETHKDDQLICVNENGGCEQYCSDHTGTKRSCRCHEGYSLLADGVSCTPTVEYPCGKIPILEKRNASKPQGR

Consider the following illustrative entries.
CC1(C)C2CC3OB(C(CCCCN)NC(=O)CN(CCc4ccccc4C4CC4)C(=O)CCc4ccccc4)OC3(C)C1C2 (stereo not shown) [Example 54.1.2, HCl] : > 6.30
COC(=O)CCC(NC(=O)OC(C)(C)C)C(=O)N(CCc1ccccc1)CC(=O)NC(CCCCN)B1OC2CC3CC(C3(C)C)C2(C)O1 (stereo not shown) [Example 69.2.3, HCl] : > 4.30
Cc1cc(C)cc(C(C)(C)CN(CC(=O)NC(CCCN=C(N)N)B2OC3CC4CC(C4(C)C)C3(C)O2)C(=O)CCc2ccccc2)c1 (stereo not shown) [Example 56.3.3, HCl] : > 6.30
COC(=O)CC(C)(C)CC(=O)N(CCc1ccccc1)CC(=O)NC(CCCCN)B1OC2CC3CC(C3(C)C)C2(C)O1 (stereo not shown) [Example 67.1.3, HCl] : > 4.30
CC(=O)N(CC(=O)NC(CCCCN)B1OC2CC3CC(C3(C)C)C2(C)O1)Cc1ccccc1Cc1ccccc1 (stereo not shown) [Example 64.1.2, HCl] : > 6.30
NCCCCC(NC(=O)CN(CCc1cccc(C(F)(F)F)c1)C(=O)CCc1ccccc1)B(O)O (stereo not shown) [Example 52.1.1, HCl] : > 4.30

Now turn to the next compound.
Query :: For human factor VIIa (Homo sapiens), give pKi of the listed compound: CC(C)(CN(CC(=O)NC(CCCCN)B(O)O)C(=O)CCc1ccccc1)c1ccccc1 (stereo not shown) [Example 53.1.1, hydrochloride salt]
Result :: > 6.30

* * *

# Assay system: human factor VIIa (Homo sapiens)
# Construct: 50 nM human factor VIIa (BiosPacific, Emeryville, Calif.); purchased BiosPacific, Emeryville, Calif
# Method description: Inhibition of Factor VIIa hydrolysis of chromogenic substrate S2288 (Ki)
# Format: biochemical
# Test settings: purified human factor VIIa, 0.05 M tris buffer, pH 7.6, read-out: Ki values for inhibition of Serine Proteases: Factor VIIa
Where a name gives a salt, the structure may show the parent alone.
Assay metric: Ki

Consider the following illustrative entries.
CC1(C)C2CC3OB(C(CCCCN)NC(=O)CN(C(=O)CCc4ccccc4)C4CCCCC4)OC3(C)C1C2 (centres unmarked) [Example 54.4.3, HCl] : < 500 nM
COC(=O)CCCC(=O)N(CCc1ccccc1)CC(=O)NC(CCCCN)B(O)O (centres unmarked) [Example 68.4.1, HCl] : < 50000 nM
COC(=O)CCCC(=O)N(CCc1ccccc1)CC(=O)NC(CCCCN)B1OC2CC3CC(C3(C)C)C2(C)O1 (centres unmarked) [Example 69.4.1, HCl] : < 50000 nM

Query :: Provide only the value of recorded Ki for Cc1cc(C)cc(CCN(CC(=O)NC(CCCN)B2OC3CC4CC(C4(C)C)C3(C)O2)C(=O)CCc2ccccc2)c1 (centres unmarked) [Example 60.4.1, HCl]
Result :: < 50000 nM

Query :: Provide only the value of recorded Ki for NCCCCC(NC(=O)CN(C(=O)CCc1ccccc1)C1CCCCC1)B(O)O (centres unmarked) [Example 53.4.3, HCl]
Result :: < 500 nM

* * *

# Assay system: human factor Xa (Homo sapiens, UniProt P00742)
# Construct: 0.2-0.5 nM human thrombin or human factor Xa; purchased Enzyme Research Laboratories, South Bend, Ind
# Sequence (P00742 235-488 limits assumed): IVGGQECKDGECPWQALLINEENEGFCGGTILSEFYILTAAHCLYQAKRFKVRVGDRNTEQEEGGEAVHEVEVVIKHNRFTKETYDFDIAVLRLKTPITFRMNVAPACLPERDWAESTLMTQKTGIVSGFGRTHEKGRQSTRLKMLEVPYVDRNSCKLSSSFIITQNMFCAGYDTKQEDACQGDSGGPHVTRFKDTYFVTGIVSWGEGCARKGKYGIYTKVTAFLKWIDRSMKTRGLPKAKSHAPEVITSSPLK
# Sequence (P00742 41-179 partner limits assumed): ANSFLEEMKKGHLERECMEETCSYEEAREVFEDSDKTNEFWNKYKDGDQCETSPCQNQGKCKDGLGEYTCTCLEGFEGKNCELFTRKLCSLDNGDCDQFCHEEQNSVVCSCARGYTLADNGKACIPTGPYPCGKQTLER
# Method description: Inhibition of Factor Xa hydrolysis of chromogenic substrate S2222 (Ki)
# Assay type: biochemical
# Test settings: purified human factor Xa, 0.10 M sodium phosphate buffer, pH 7.5, read-out: Ki values for inhibition of Serine Proteases: Factor Xa
pKi: −log10 of the molar value. Where a name gives a salt, the structure may show the parent alone.
Assay metric: pKi

Consider the following illustrative entries.
CC(C)(CN(CC(=O)NC(CCCN)B1OC2CC3CC(C3(C)C)C2(C)O1)C(=O)CCc1ccccc1)c1ccccc1 (stereo not drawn) [Example 60.3.3, HCl] : > 4.30
CC(C)(CN(CC(=O)NC(CCCN)B1OC2CC3CC(C3(C)C)C2(C)O1)C(=O)CCc1ccccc1)c1ccccc1 (stereo not drawn) [Example 60.1.1, HCl] : > 4.30
CC1(C)C2CC3OB(C(CCCCN)NC(=O)CN(CCc4cccc(C(F)(F)F)c4)C(=O)CCc4ccccc4)OC3(C)C1C2 (stereo not drawn) [Example 51.1.1, HCl] : > 6.30
CN(CC(=O)NC(CCCCBr)B1OC2CC3CC(C3(C)C)C2(C)O1)C(=O)c1ccccc1Sc1ccccc1C#N (stereo not drawn) : > 4.30
CN(CC(=O)NC(CCCSC(=N)N)B1OC2CC3CC(C3(C)C)C2(C)O1)C(=O)c1ccccc1Sc1ccccc1 (stereo not drawn) : > 6.30

Now turn to the next compound.
Query :: Provide only the value of recorded pKi for CN(CC(=O)NC(CCCN=[N+]=[N-])B1OC2CC3CC(C3(C)C)C2(C)O1)C(=O)c1ccccc1Sc1ccccc1C#N (stereo not drawn)
Result :: > 4.30
